# Measured Target: HA H1 A/California/07/09 (Influenza A virus (A/California/07/2009(H1N1)), UniProt C3W5X2)
# Method: biochemical
# Measurement Conditions: Competition binding (AlphaLISA), pIC50 H1 A/California/07/09
The following molecules are listed with their measured pIC50 values.
Recall that pIC50 is obtained by taking minus log10 of the concentration measured in molar.

- Molecule: "Cc1nnc([C@@H](c2ccccc2)N2CCN(C(=O)c3cccc(-c4nc5cc(C(F)(F)F)ccc5o4)c3)CC2)o1 [Example 69]"
  pIC50: 7.20
- Molecule: "CC(=O)Nc1ccc2oc(-c3ccnc(C(=O)N4CCN(C(c5ccccc5)c5n[nH]c(C)n5)CC4)c3)nc2c1 (stereo not shown) [Example 5]"
  pIC50: 7.60
- Molecule: "Cc1nnc(C(c2ccccc2)N2CCN(C(=O)c3cc(-c4nc5ccccc5o4)ccc3F)CC2)o1 (stereo not shown) [Example 52]"
  pIC50: 6.70
- Molecule: "CC(=O)Nc1ccc2oc(-c3ccnc(C(=O)N4CCN([C@H](c5ccccc5)c5nnc(C)o5)CC4)c3)nc2c1 [Example 15]"
  pIC50: 8.50
- Molecule: "COc1ccc2nc(-c3cccc(C(=O)N4CCN(C(c5ccccc5)c5nnn(C)n5)CC4)c3)sc2c1 (stereo not shown) [Example 72]"
  pIC50: 6.70
- Molecule: "COC(=O)C(c1ccccc1)C1CCN(C(=O)c2cccc(-c3ccc(OC)cc3)c2)CC1 (stereo not shown) [Example 130]"
  pIC50: 6.00

Consider the additional molecule presented here.
Request: What value of pIC50 has been reported for the following molecule? COC(=O)C(c1ccccc1)N1CCCN(C(=O)c2cccc(-c3nc4ccc(OC)cc4s3)c2)CC1 (stereo not shown) [Example 132]
Response: 6.10

---

# Measured Target: HA H5 A/Vietnam/1203/04 (Influenza A virus (A/Vietnam/1203/2004(H5N1)), UniProt Q5EP31)
# Method: biochemical
# Measurement Conditions: Competition binding (AlphaLISA), pIC50 H5 A/Vietnam/1203/04
Observation Type: IC50 (nM)
The response must be a number in nM with no trailing unit.

See these solved cases before continuing.
- Compound: "COc1nnc(C(c2ccccc2)N2CCN(C(=O)c3cc(-c4nc5cc(OC(F)(F)F)ccc5o4)ccn3)CC2)o1 (stereo not shown)"
  IC50, nM: 794
- Compound: "COC(=O)C(c1ccccc1)N1CCN(C(=O)c2cccc(-c3ccc(OC)cc3)c2)CC1 (stereo not shown) [Example 128]"
  IC50, nM: 3160
- Compound: "COC(=O)C(c1ccccc1)C1CCN(C(=O)c2cccc(-c3nc4ccc(OC)cc4s3)c2)CC1 (stereo not shown)"
  IC50, nM: 2000
- Compound: "Cc1nnc([C@@H](c2ccccc2)N2CCN(C(=O)c3cc(-c4nc5cc(OC(F)(F)F)ccc5o4)ccn3)CC2)o1"
  IC50, nM: 158

Request: What value of IC50 has been reported for the following compound? COC(=O)C(c1ccccn1)C1CCN(C(=O)c2cccc(-c3nc4ccc(OC)cc4s3)c2)CC1 (stereo not shown)
Response: 794

Request: Also Cc1nnc(C(c2ccccc2)N2CCN(C(=O)c3ccnc(-c4nc5cc(C(F)(F)F)ccc5o4)c3)CC2)o1 (stereo not shown) , if possible.
Response: 39800

Request: Also COC(=O)C(c1ccccc1)N1CCN(C(=O)c2cccc(-c3nc4cc(N)ccc4o3)c2)CC1 (stereo not shown) , if possible.
Response: 794

---

# Measured Target: HA H1 A/New Caledonia/20/99 (Influenza A virus (A/New Caledonia/20/1999(H1N1)), UniProt Q6WG00)
# Method: biochemical
# Measurement Conditions: Competition binding (AlphaLISA), pIC50 H1 A/New Caledonia/20/99
Observation Type: IC50 (nM)
The response must be a number in nM with no trailing unit.

See these solved cases before continuing.
- Molecule: "COC(=O)C(c1ccccc1)N1CCN(C(=O)c2cccc(-c3nc4ncccc4o3)c2)CC1 (stereo not shown)"
  IC50 [nM]: 39.8
- Molecule: "COC(=O)C(c1ccccc1)C1CCN(C(=O)c2cccc(-c3nc4ccc(OC)cc4s3)c2)CC1 (stereo not shown)"
  IC50 [nM]: 100
- Molecule: "COc1ccc2nc(-c3cccc(C(=O)N4CCN(C(C(C)=O)c5ccccc5)CC4)c3)sc2c1 (stereo not shown) [Example 106]"
  IC50 [nM]: 200

Request: What value of IC50 has been reported for the following molecule? COC(=O)C(c1ccccc1)N1CCN(C(=O)c2cncc(-c3nc4ccc(OC)cc4s3)c2)CC1 (stereo not shown)
Response: 50.1

Request: Also COc1ccc2nc(-c3cccc(C(=O)N4CCN(C(C(=O)NCCN)c5ccccc5)CC4)c3)sc2c1 (stereo not shown) , if possible.
Response: 63.1

Request: Also Cc1nnc(C(c2ccccc2)N2CCN(C(=O)c3cccc(-c4nc5cc(O)ccc5o4)c3)CC2)o1 (stereo not shown) , if possible.
Response: 50.1

Request: Also Cn1nnc([C@@H](c2ccccc2)N2CCN(C(=O)c3cc(-c4nc5cc(OC(F)(F)F)ccc5o4)ccn3)CC2)n1 , if possible.
Response: 10

---

# Measured Target: HA H1 A/California/07/09 (Influenza A virus (A/California/07/2009(H1N1)), UniProt C3W5X2)
# Method: biochemical
# Measurement Conditions: Competition binding (AlphaLISA), pIC50 H1 A/California/07/09
Observation Type: log10 IC50 (log10 of the value in nM)
Recorded IC50 (log10, nM)

- Compound: "COc1ccc2nc(-c3cccc(C(=O)N4CCN(C(CO)c5ccccc5)CC4)c3)sc2c1 (stereo not drawn) [Example 82]"
  Value: 2.30

Request: What value of log10 IC50 has been reported for the following compound? Cc1nnc(C(c2ccccc2)N2CCN(C(=O)c3cccc(-c4nc5cc(N(C)C)ccc5o4)c3)CC2)o1 (stereo not drawn) [Example 35]
Response: 1.20

Request: Also COC(=O)C(c1ccccc1)N1CCN(C(=O)c2cccc(-c3nc4cc(OC)ccc4o3)c2)CC1 (stereo not drawn) [Example 13] , if possible.
Response: 0.90

Request: Also Cc1nnc([C@@H](c2ccccc2)N2CCN(C(=O)c3cccc(-c4cnc5ccccc5c4)c3)CC2)o1 [Example 76] , if possible.
Response: 2.30

Request: Also COC(=O)C(c1cccnc1)N1CCN(C(=O)c2cccc(-c3nc4ccc(OC)cc4s3)c2)CC1 (stereo not drawn) [Example 68] , if possible.
Response: 2.30

Request: Also COc1ccc2nc(-c3cccc(C(=O)N4CCN(C(c5ccccc5)c5nnc(C)o5)CC4)c3)sc2c1 (stereo not drawn) [Example 71] , if possible.
Response: 2.00

Request: Also COC(=O)[C@@H](c1ccccc1)N1CCN(C(=O)c2cccc(-c3nc4ccc(OC)cc4s3)c2)CC1 [Example 22] , if possible.
Response: 1.20

Request: Also COC(=O)C(c1ccccc1)N1CCN(C(=O)c2ccnc(-c3nc4cc(C(F)(F)F)ccc4o3)c2)CC1 (stereo not drawn) [Example 119] , if possible.
Response: 2.20

Request: Also COC(=O)C(c1ccccc1)N1CCN(C(=O)c2cccc(-c3nc4cc(OC5CC5)ccc4o3)c2)CC1 (stereo not drawn) [Example 1] , if possible.
Response: 0.10

---

# Measured Target: HA H5 A/Vietnam/1203/04 (Influenza A virus (A/Vietnam/1203/2004(H5N1)))
# Method: biochemical
# Measurement Conditions: Competition binding (AlphaLISA), pIC50 H5 A/Vietnam/1203/04
The following compounds are listed with their measured pIC50 values.
Recall that pIC50 is obtained by taking minus log10 of the concentration measured in molar.

- Compound: "Cc1cnc(C(c2ccccc2)N2CCN(C(=O)c3cc(-c4nc5cc(OC(F)(F)F)ccc5o4)ccn3)CC2)o1 (stereo not shown) [Example 20]"
  Measured Target: "HA H5 A/Vietnam/1203/04 (Influenza A virus (A/Vietnam/1203/2004(H5N1)))"
  pIC50: 6.30
- Compound: "O=C(c1cccc(-c2nc3cc(C(F)(F)F)ccc3o2)c1)N1CCN(C(c2ccccc2)c2nnco2)CC1 (stereo not shown) [Example 107]"
  Measured Target: "HA H5 A/Vietnam/1203/04 (Influenza A virus (A/Vietnam/1203/2004(H5N1)))"
  pIC50: 4.70
- Compound: "COc1ccc2nc(-c3cccc(C(=O)N4CCN(C(CO)c5ccccc5)CC4)c3)sc2c1 (stereo not shown) [Example 82]"
  Measured Target: "HA H5 A/Vietnam/1203/04 (Influenza A virus (A/Vietnam/1203/2004(H5N1)))"
  pIC50: 6.00

Consider the additional compound presented here.
Request: What value of pIC50 has been reported for the following compound? COC(=O)C(c1ccccc1)N1C[C@H]2CC[C@@H](C1)N2C(=O)c1cccc(-c2nc3ccc(OC)cc3s2)c1 (stereo partly shown) [Example 88]
Response: 6.30
